Parameter kon: see the listing below.
# tested system: cyclophilin A (CypA) (Homo sapiens)
# Construct: purchased R&D 3589-CAB
# Sequence (P62937 whole entry): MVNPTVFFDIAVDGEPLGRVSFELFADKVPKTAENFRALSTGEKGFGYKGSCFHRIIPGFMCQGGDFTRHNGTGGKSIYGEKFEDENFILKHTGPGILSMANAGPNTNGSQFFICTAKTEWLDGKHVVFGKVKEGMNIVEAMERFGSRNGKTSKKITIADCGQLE
# experiment: Binary complex binding assay (BLI)
# measurement parameters: His-tagged CypA, pH 7.4, 1:1 binding model, read-out: ka (association rate constant)
Answer format: numeric, M⁻¹ s⁻¹ implied, no suffix.

{"molecule": "CO[C@@H](C)c1ncc(-c2nnc(C3CCN(C4COC4)CC3)o2)cc1-c1c2c3cc(ccc3n1CC(F)(F)F)-c1csc(n1)C[C@H](NC(=O)C1[C@@H](C)[C@H]1C)C(=O)N1N[C@H](C(=O)OCC(C)(C)C2)C2CC1C2 (some centres unmarked)", "endpoint name": "kon", "value reported": 330000}
{"molecule": "CCn1c(-c2cc(-c3nnc(C4CCN(C5CN(C(C)C)C5)CC4)o3)cnc2[C@H](C)OC)c2c3cc(ccc31)-c1csc(n1)C[C@H](NC(=O)[C@H]1C[C@@H]1C)C(=O)N1CCC[C@H](N1)C(=O)OCC(C)(C)C2 (atropisomer, axis not shown)", "endpoint name": "kon", "value reported": 230000}
{"molecule": "CO[C@@H](C)c1ncc(-c2nnc(C3CCN(C4COC4)CC3)o2)cc1-c1c2c3cc(ccc3n1CC(F)(F)F)-c1csc(n1)C[C@H](NC(=O)[C@H]1[C@H](C)[C@@H]1C)C(=O)N1CCC[C@H](N1)C(=O)OCC(C)(C)C2 (atropisomer, axis not shown)", "endpoint name": "kon", "value reported": 130000}
{"molecule": "CCn1c(-c2cc(-c3nc(C4CCN(C5COC5)CC4)n(C)n3)cnc2[C@H](C)OC)c2c3cc(ccc31)-c1csc(n1)C[C@H](NC(=O)[C@H]1[C@H](C)[C@@H]1C)C(=O)N1CCC[C@H](N1)C(=O)OCC(C)(C)C2 (atropisomer, axis not shown)", "endpoint name": "kon", "value reported": 150000}

Here is another molecule to look at.
-- ask Query: kon; subject: CO[C@@H](C)c1ncc(-c2nnc(C3CCN(C4COC4)CC3)o2)cc1-c1c2c3cc(ccc3n1CC(F)(F)F)-c1csc(n1)C[C@H](NC(=O)[C@H]1C[C@@H]1C)C(=O)N1CCC[C@H](N1)C(=O)OCC(C)(C)C2 (atropisomer, axis not shown)
-- reply 200000
